# TARGET OR SYSTEM: Tyrosine-protein kinase BTK (Homo sapiens, UniProt Q06187)
# Sequence (Q06187 whole entry): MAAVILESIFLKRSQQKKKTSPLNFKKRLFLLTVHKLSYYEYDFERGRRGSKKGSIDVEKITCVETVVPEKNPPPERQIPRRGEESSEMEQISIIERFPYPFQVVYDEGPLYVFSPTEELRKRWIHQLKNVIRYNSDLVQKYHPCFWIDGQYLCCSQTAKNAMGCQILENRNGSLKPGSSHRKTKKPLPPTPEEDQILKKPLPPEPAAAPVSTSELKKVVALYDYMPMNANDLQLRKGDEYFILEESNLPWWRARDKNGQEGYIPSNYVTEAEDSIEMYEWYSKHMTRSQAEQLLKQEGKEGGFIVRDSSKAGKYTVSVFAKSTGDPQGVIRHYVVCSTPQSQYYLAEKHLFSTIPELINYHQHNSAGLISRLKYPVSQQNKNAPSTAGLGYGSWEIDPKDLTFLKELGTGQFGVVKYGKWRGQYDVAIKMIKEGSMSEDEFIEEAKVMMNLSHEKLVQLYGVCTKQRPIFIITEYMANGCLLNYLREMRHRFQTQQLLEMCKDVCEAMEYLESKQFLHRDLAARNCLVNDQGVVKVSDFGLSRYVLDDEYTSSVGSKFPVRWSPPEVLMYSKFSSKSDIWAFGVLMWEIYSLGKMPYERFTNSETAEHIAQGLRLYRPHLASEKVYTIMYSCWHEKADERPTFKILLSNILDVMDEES
Reported values of pIC50 for individual entries
# log scale: pIC50 equals minus log10 of the concentration in mol/L

CC(=O)Cn1cc(-c2cnc(N)c3c(-c4ccc(Oc5ccccc5)cc4)csc23)cn1 | 8.11
Nc1ncc(C2=CCNCC2)c2scc(-c3ccc(Oc4ccccc4)cc3)c12 | 6.07
CNC(=O)CN1C=C(c2cnc(N)c3c(-c4ccc(Oc5ccccc5)cc4)csc23)CCC1 | 6.34

Entry `Nc1ncc(-c2cnn(CC(=O)N3CCCCC3)c2)c2scc(-c3ccc(Oc4ccccc4)cc3)c12` under Tyrosine-protein kinase BTK (Homo sapiens, UniProt Q06187) had pIC50 of 7.91

Lab entry: Tyrosine-protein kinase BTK (Homo sapiens, UniProt Q06187) assay, compound `Nc1ncc(C2=CNCCC2)c2scc(-c3ccc(Oc4ccccc4)cc3)c12` , pIC50 = 5.44

---

# TARGET OR SYSTEM: Tyrosine-protein kinase BTK (Homo sapiens)
pIC50: −log10 of the molar value.
Response key: Criterion met means pIC50 >= 6; Criterion not met means pIC50 < 6.

Look over these answered cases.
C=CC(=O)NCCn1cc(-c2cnc(N)c3c(-c4ccc(Oc5ccccc5)cc4)csc23)cn1 | Criterion met
CS(=O)(=O)OC1CCCN(C(=O)CCn2cc(-c3cnc(N)c4c(-c5ccc(Oc6ccccc6)cc5)csc34)cn2)C1 (stereo unspecified) | Criterion met

Does pIC50 meet or surpass 6 for C=CC(=O)N1CCCC(c2cnc(N)c3c(-c4ccc(Oc5ccccc5)cc4)csc23)C1 (stereo unspecified) ?
Criterion not met

hey, is pIC50 for this one >= 6? `C=CC(=O)n1cc(-c2cnc(N)c3c(-c4ccc(Oc5ccccc5)cc4)csc23)cn1`
Criterion not met

I'd appreciate it if you could say whether `C=CC(=O)N1C=C(c2cnc(N)c3c(-c4ccc(Oc5ccccc5)cc4)csc23)CCC1` has pIC50 at least equal to 6.
Criterion met

Does pIC50 meet or surpass 6 for `C#CCn1cc(-c2cnc(N)c3c(-c4ccc(Oc5ccccc5)cc4)csc23)cn1` ?
Criterion met

---

# TARGET OR SYSTEM: Tyrosine-protein kinase JAK2 (Homo sapiens)
# Sequence (O60674 whole entry): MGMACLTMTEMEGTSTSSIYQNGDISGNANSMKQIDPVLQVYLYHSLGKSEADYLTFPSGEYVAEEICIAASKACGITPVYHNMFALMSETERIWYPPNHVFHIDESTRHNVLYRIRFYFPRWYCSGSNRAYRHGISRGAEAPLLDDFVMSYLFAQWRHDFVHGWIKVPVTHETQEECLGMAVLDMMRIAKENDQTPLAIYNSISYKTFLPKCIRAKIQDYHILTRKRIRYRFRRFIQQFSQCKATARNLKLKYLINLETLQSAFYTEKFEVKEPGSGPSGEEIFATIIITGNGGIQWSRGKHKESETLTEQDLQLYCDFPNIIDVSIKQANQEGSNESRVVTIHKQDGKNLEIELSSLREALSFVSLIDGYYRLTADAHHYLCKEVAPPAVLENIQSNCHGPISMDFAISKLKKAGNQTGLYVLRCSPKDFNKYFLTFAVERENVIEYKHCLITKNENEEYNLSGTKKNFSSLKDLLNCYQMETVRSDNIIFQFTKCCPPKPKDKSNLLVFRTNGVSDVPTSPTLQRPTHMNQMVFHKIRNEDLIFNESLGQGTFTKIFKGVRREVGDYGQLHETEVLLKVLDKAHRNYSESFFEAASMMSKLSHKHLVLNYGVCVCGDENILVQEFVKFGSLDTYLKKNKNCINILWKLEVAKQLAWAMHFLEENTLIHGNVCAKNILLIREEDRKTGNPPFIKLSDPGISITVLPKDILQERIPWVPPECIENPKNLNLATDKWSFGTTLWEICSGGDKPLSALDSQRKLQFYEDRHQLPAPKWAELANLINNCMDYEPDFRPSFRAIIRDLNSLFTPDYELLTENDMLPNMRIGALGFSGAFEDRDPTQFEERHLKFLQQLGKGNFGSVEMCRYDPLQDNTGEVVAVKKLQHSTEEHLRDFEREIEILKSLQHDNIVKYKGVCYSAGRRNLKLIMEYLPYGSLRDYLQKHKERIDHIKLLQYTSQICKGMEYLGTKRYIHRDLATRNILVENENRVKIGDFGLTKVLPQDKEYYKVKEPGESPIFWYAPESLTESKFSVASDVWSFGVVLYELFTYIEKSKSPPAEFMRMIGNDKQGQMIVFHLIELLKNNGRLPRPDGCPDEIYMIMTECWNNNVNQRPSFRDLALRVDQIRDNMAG
MEASUREMENT NAME: pIC50
Interpret pIC50 as the negative base-10 log of the concentration measured in mol/L.

Form field, pIC50 with Tyrosine-protein kinase JAK2 (Homo sapiens), item `Nc1ncc(-c2cnn(CC(=O)N3CCOCC3)c2)c2scc(-c3ccc(Oc4ccccc4)cc3)c12` : 5.16

src = ChEMBL document CHEMBL3611978
